Where do these numbers come from? They come from BindingDB's records for doi:10.1016/j.bmc.2010.06.094.

Each entry below carries its recorded IC50.
biological target: Prostaglandin G/H synthase 1 / COX-1 (Ovis aries) (UniProt P05979); test: Inhibition of sheep COX1
readout-type: IC50 (µM)

structure-smiles | readout-type | rel | numeric-readout
CS(=O)(=O)c1ccc(-c2cc(C(=O)O)c3cc(C(=O)c4ccccc4)ccc3n2)cc1 | IC50 | = | 24.4
[N-]=[N+]=Nc1ccc(-c2cc(C(=O)O)c3cc(C(=O)c4ccccc4)ccc3n2)cc1 | IC50 | > | 100
CS(=O)(=O)c1ccc(-c2cc(C(=O)O)c3ccccc3n2)cc1 | IC50 | = | 13.4
CS(=O)(=O)c1ccc(-c2cc(C(=O)O)c3cccc(C(=O)c4ccccc4)c3n2)cc1 | IC50 | = | 15.9
CC(=O)Nc1ccc(-c2cc(C(=O)O)c3cccc(C(=O)c4ccccc4)c3n2)cc1 | IC50 | = | 9.2
